Source listed as patent US20230391854A1.

# System Tested: Biotin-ncov RBD (KACTUS, COV-VM4BDB) (SARS-CoV-2, UniProt P0DTC2 319-537)
# Experimental Details: ELISA blocking assay: antibody titrated from 900 nM, blocks biotin-RBD (200 ng/mL) binding to coated ACE2-Fc
Experimental Endpoint: IC50 (nM)

Binder	Numeric Result
P3-11 (antibody, V domains shown, also called candidate antibody molecule P3-11) VH: QVQLVESGGGLVQPGGSLRLSCAASGITVSSNYMSWVRQAPGKGLEWVSVIYSGGSTFYADPVKGRLTISRDNSKNTLYLQMNSVRVEDTAVYYCARGEGWELPFDYWGQGALVTVSS VL: QSALTQPPSASGSPGQSVTISCTGTSSDVGGNKYVSWYQQHPGKAPKLIIYEVSKRPSGVPDRFSGSKSGNTASLTVSGLQAEDEADYHCSSYAGSNNLVFGGGTKLTVL	1.1
P14-44 (antibody, V domains shown, also called candidate antibody molecule P14-44) VH: QVQLVQSGAEVKKPGASVKVSCKASGYIFTSYSMHWVRQAPGQGLEWMGTIKPSDDSTNYAQKFQGRVSMTRDTSTSTVYMELSSLRYEDTAVYYCAREARGYYDRSGYYHPGYFDYWGQGTLVTVSS VL: QSVLTQPASVSGSPGQSITISCTGTSSDVGGYNFVSWYQQHPGKAPKLMIYEVSDRPSGVSSRFSGSKSGNTASLTISGLQAEDEADYYCFSYTTSTTWVFGGGTKLTVL	0.863
P5-22 (antibody, V domains shown, also called candidate antibody molecule P5-22) VH: EVQLVESGGGLVKPGGSLRLSCAASGFTFRDYDIIWIRQAPGKGLEWVSYISRSGSTIYYSDSVRGRFTISRDNAKNSVYLQMNSLRAEDTAVYYCARDFGFEGPRMDVWGQGTTVTVSS VL: DIQMTQSPSSLSASVGDRVTITCQASQDIKNYLNWYQQKPGKAPKLLIYDASNLETGVPSRFSGSGSGTDFTFTISSLQPEDIATYYCQQFDNLPITFGQGTRLEIK	1.08
P14-37 (antibody, V domains shown, also called candidate antibody molecule P14-37) VH: EVQLVESGGGLVKPGGSLRLSCAASGFTFSNAWMSWVRQAPGKGLEWVGRIKRNSDGGTTDHAAPVTGRFIISRDDSKNTLYLQMNSLRTEDTAVYYCTTDLDTVVRRVVITDHDAFDIWGQGTMVTVSS VL: DIQMTQSPSSLSASVGDRVTITCRASQSISSFLNWYQQKAGKAPKLLIYAASSLQSGVPSRFSGSGSGTDFSLTISNLQPEDFATYYCQQSYSTPSITFGQGTRLEIK	1.14
